# assaySystem: HLA-A*0301 (human)
attributeMeasured: relative binding ratio (IC50 of standard peptide / IC50 of test peptide)
I'd appreciate a reply containing only the number, no unit.

Example results:
binder: NSNAAAFLK (modifications not checked) [HPV45 E1 peptide … (position 379, 9 amino acids)]
endpointValue: 0.0057
//
binder: FLKSNSQAK (modifications not checked) [HPV33 E1 385 peptide … (SEQ ID NO: 35888)]
endpointValue: 0.0013
//
binder: LLIRCLRCQK (modifications not checked) [HPV18 E6 peptide … (position 101, 10 amino acids)]
endpointValue: 0.047
//
binder: SVYGDTLEK (modifications not checked) [HPV18 E6 peptide … (position 84, 9 amino acids)]
endpointValue: 0.08
//
binder: VVYRDSIPH (modifications not checked) [HPV18 E6 peptide … (position 54, 9 amino acids)]
endpointValue: 0.12
//
binder: ALLRYKCGK (modifications not checked) [HPV45 E1 270 … (SEQ ID NO: 37205)]
endpointValue: 0.09
//
binder: NTGLYNLLIR (modifications not checked) [HPV18 E6 peptide … (position 95, 10 amino acids)]
endpointValue: 0.0002

Entry RFHNIAGHY (modifications not checked) [HPV18 E6 peptide … (position 126, 9 amino acids)] — recorded relative binding ratio (IC50 of standard peptide / IC50 of test peptide) = 0.0005

All values here come from patent US7026443.
